Please respond with reported log10 IC50 for every item in the list.
- SYSTEM: T1, recombinant human Factor VIIa (human), P08709
- T1 chain 1: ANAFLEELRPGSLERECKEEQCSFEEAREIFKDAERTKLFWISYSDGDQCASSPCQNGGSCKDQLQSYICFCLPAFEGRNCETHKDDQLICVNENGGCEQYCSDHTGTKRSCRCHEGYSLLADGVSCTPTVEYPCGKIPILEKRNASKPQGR
- T1 chain 2: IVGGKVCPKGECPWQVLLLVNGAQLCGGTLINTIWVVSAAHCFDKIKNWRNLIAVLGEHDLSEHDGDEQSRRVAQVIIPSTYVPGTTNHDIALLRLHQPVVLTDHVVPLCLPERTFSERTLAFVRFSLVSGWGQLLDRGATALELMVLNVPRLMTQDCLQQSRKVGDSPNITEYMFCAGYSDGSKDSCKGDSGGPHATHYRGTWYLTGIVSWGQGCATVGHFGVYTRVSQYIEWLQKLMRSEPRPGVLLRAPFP
- ASSAY_PROCEDURE: competition ELISA
- STUDY_CONDITIONS: modification not given
Scale: log10; quantity: IC50; unit before log: nM

ALCDDPRVDRFYCQFVEG [TF131]    3.70

Respectfully, I request log10 IC50 for each entry included below.
1. VGALCDDPRVDRWYCQFVE [TF75]
2. ALCDDPRVDPWYCQFVEG [TF113]
3. ALCDDPRVDRWYCQFV [TF89]

OUTPUT:
1: 0.78; 2: 4.02; 3: 2.47
